- study-target: acetylcholine receptor
- assay-details: SPR, receptor immobilized, peptide 10 uM
assay-metric: Binding affinity (RU)

Here is how some binders turned out for Binding affinity (RU).
| binder | assay-metric | quantitative-readout |
| --- | --- | --- |
| KKWFTK [6mer-1-165] | Binding affinity (RU) | 148 |
| RDSWR [5mer-768] | Binding affinity (RU) | 11 |
| RRLIYR [6mer-1-158] | Binding affinity (RU) | 131 |

(a) KEADK [5mer-750]
(b) RDSHK [5mer-780]
(c) KKGVCR [6mer-1-174]
### Prompt Hello, I need these entries ordered by Binding affinity (RU), highest reading first. Thanks! Hello, could you send the labels back in the order asked? Thank you.
### Response c, b, a
(c: 154 RU, b: 27 RU, a: 13 RU)

(a) REWDKK [6mer-2-889]
(b) RMTWRK [6mer-2-831]
### Prompt Select one: a or b . Criterion: greater recorded Binding affinity (RU). Your answer should be the label of the entry you select.
### Response b
